System: P12-Ichikawa
assay_remarks: cell viability relative to DMSO control; higher = less cytotoxic
condition_parameters: RPMI 5 mM glucose + 10% FBS; 48 h; 1.71 µM
Response field label: string, one of condition met (cell viability strictly below 90%) or condition not met.

// below: answered compounds
1) COCCn1c2c([n+](Cc3cnccn3)c1C)C(=O)c1ccccc1C2=O; condition met
2) OC(=O)\C1=C\N(C2CC2)C3=CC(=C(F)C=C3C1=O)N4CCNCC4; condition not met
3) Oc1ccc(OCc2ccccc2)cc1; condition not met
4) C[C@]12CC[C@H]3[C@@H](CC(=C)\C4=C\C(=O)\C=C/[C@]34C)[C@@H]1CCC2=O; condition not met
5) Cc1cc(Nc2cc(N3CCN(C)CC3)nc(/C=C/c3ccccc3)n2)n[nH]1; condition met
6) CCNC(=O)CCC/C=C\C[C@@H]1[C@@H](/C=C/C(O)CCc2ccccc2)[C@@H](O)C[C@@H]1O (stereo not given in full); condition not met
7) O=C(O)c1cc(O)c2c(c1)C(=O)c1cccc(O)c1C2=O; condition not met
8) Clc2cccc(Cl)c2\N=C1/NCCN1; condition not met
9) CCNC(=O)Nc1ccc(Oc2ncnc(N)c2/C=N/OC)cc1Cl; condition not met
10) O=C1NC(=O)/C(=C/c2ccc3nccnc3c2)S1; condition not met

Let us examine a further case.
## Input API: query returns whether the compound falls strictly under 90% in cell viability. Query: COc1ccc(F)c(F)c1C(=O)c1cnc(NC2CCN([S+](C)(=O)[O-])CC2)nc1N
## Output condition met

###

So I've got a bunch of compounds here, and I need their cell viability values.
Tested on: SEM cells
assay_remarks: cell viability relative to DMSO control; higher = less cytotoxic
condition_parameters: RPMI 5 mM glucose + 10% FBS; 48 h; 0.569 µM
Give bare numbers, in %.

// below: answered compounds
1. O=C(CN1C(=O)C2(CCCC2)NC[C@H]1c1cc(F)cc(F)c1)Nc1ccc2c(c1)C[C@@]1(C2)C(=O)Nc2ncccc21; 145
2. O=C(/C=C/c1ccc(/C=C/C(=O)Nc2ccc(C3=NCCN3)cc2)cc1)Nc1ccc(C2=NCCN2)cc1; 110
3. CCOC(=O)c1c(C)n(C)c2ccc(O)cc12; 108

Working through the 8 compounds below one at a time, give cell viability for each.
1. CC(C)C1CCC(C(=O)N[C@H](Cc2ccccc2)C(=O)O)CC1 (some centres not stated)
2. CCOC(=O)N1CCN(/[N+]([O-])=N/Oc2cc(O/N=[N+](\[O-])N3CCN(C(=O)OCC)CC3)c([N+](=O)[O-])cc2[N+](=O)[O-])CC1
3. CCn1nnc2c(N3CCOCC3)nc(-c3ccc(NC(=O)Nc4ccc(C(=O)N5CCN(C)CC5)cc4)cc3)nc21
4. COC1=CC=C(C=C1)/C2=C(O)/C(=O)C3=C(O)C=C(O)C(=C3O2)CC=C(C)C
5. CCNC(=O)Nc1ccc(Oc2ncnc(N)c2/C=N/OC)cc1Cl
6. C[S+](=O)([O-])Oc1ccc2c(NC(N)=O)c(C(=O)c3ccc(Cl)cc3Cl)oc2c1
7. CC[C@H]1OC(=O)[C@H](C)[C@@H](O[C@H]2C[C@@](C)(OC)[C@@H](O)[C@H](C)O2)[C@H](C)[C@@H](O[C@@H]2O[C@H](C)C[C@H](N(C)C)[C@H]2O)[C@](C)(OC)C[C@@H](C)C(=O)[C@H](C)[C@@H](O)[C@]1(C)O
8. COc1cc2c(cc1OC)[C@@H]1Cc3ccc(OC)c(OC)c3CN1CC2

## Output
[62.7, 136, 114, 93.4, 70.5, 106, 105, 99.3]

###

System: P12-Ichikawa
assay_remarks: cell viability relative to DMSO control; higher = less cytotoxic
condition_parameters: RPMI 5 mM glucose + 10% FBS; 48 h; 46.1 µM
test_readout: cell viability (%)
Give bare numbers, in %.

Please review the following examples before continuing.
1. O=C(c1cncc(Br)c1)N1CCC(N2CCCC2)CC1; 90.3
2. c1cc(-c2cnn3cc(-c4ccc(OCCN5CCCCC5)cc4)cnc23)ccn1; 50.5
3. O=C(O)c1cc(O)c2c(c1)C(=O)c1cccc(O)c1C2=O; 102
4. CCN(CC)CCNC(=O)c1c(C)[nH]c(/C=C2\C(=O)Nc3ccc(F)cc32)c1C; 2.44
5. NCCCC(N)(C(=O)O)C(F)F (stereo not drawn); 109
6. Clc2cccc(Cl)c2\N=C1/NCCN1; 123

Go through the list and state cell viability for each entry.
1. C[C@H](NC(=O)Cc1cc(F)cc(F)c1)C(=O)N[C@H](C(=O)OC(C)(C)C)c1ccccc1
2. COc1ccccc1[C@H](c1cccc2ccccc12)[C@@](C)(C#N)C(=O)N1CCC(c2cccc(C(F)(F)F)c2)CC1

## Output
92.8
60.7

###

Tested on: NOMO1
assay_remarks: AUC of viability dose-response curve (% viability x log10 dose units); higher = less sensitive
condition_parameters: RPMI 5 mM glucose + 10% dialyzed FBS; 48 h
test_readout: AUC of viability dose-response curve
One number for each entry.

Please look at the items below and tell me AUC of viability dose-response curve for each one, in order.
1. CO[C@H]1/C=C/O[C@@]2(C)Oc3c(C)c(O)c4c(c3C2=O)C2=NC3(CCN(CC(C)C)CC3)NC2=C(NC(=O)/C(C)=C/C=C/[C@H](C)[C@H](O)[C@@H](C)[C@@H](O)[C@@H](C)[C@H](OC(C)=O)[C@@H]1C)C4=O
2. Nc1cccc([S+](=O)([O-])N2CCCN([S+](=O)([O-])c3ccc4c(c3)OCCO4)CC2)c1
3. CCNC(=O)CCC/C=C\C[C@@H]1[C@@H](/C=C/C(O)CCc2ccccc2)[C@@H](O)C[C@@H]1O (some centres undefined)
4. c1ccc(CNc2nc(NCc3ccccc3)c3ccccc3n2)cc1

## Output
1. 466
2. 447
3. 459
4. 463

###

Tested on: SEM cells
assay_remarks: cell viability relative to DMSO control; higher = less cytotoxic
condition_parameters: RPMI 5 mM glucose + 10% FBS; 48 h; 1.71 µM
test_readout: cell viability (%)
Answers are plain numbers, in %.

// solved cases for cell viability follow
1) COc1cc2c(cc1OC)[C@@H]1Cc3ccc(OC)c(OC)c3CN1CC2; 93.9
2) CCCCc1ccc2[nH]c(NC(=O)OC)nc2c1; 14.5
3) O=C1NC(=O)/C(=C/c2ccc3nccnc3c2)S1; 115

// sample CN1C(=O)/C(=C(NC2=CC=C(I)C=C2F)\C3=C1\N=C/N(C[C@@H](O)CO)C3=O)F , its cell viability was 60.2

###

System: P12-Ichikawa
assay_remarks: cell viability relative to DMSO control; higher = less cytotoxic
condition_parameters: HPLM + 10% dialyzed FBS; 48 h; 0.569 µM
test_readout: cell viability (%)
Numbers only, in %.

These solved cases illustrate the format of a correct answer.
1. CN1CCc2c(c3ccccc3n2Cc2ccc(C(=O)NO)cc2)C1; 89.6
2. O=C(/C=C/c1ccc(/C=C/C(=O)Nc2ccc(C3=NCCN3)cc2)cc1)Nc1ccc(C2=NCCN2)cc1; 117
3. CC(C)C1CCC(C(=O)N[C@H](Cc2ccccc2)C(=O)O)CC1 (some centres not stated); 92.5
4. COc1cc2c(cc1OC)[C@@H]1Cc3ccc(OC)c(OC)c3CN1CC2; 112
5. CC(C(C)N1CC(=O)NC(=O)C1)N1CC(=O)NC(=O)C1 (configuration not stated); 130
6. O=C1NC(=O)/C(=C/c2ccc3nccnc3c2)S1; 102

Attention now turns to another entry.
Reading of cell viability for CCCOc1ccc(C(=O)OCCN(CC)CC)cc1N with P12-Ichikawa: 122

###

System: P12-Ichikawa
assay_remarks: AUC of viability dose-response curve (% viability x log10 dose units); higher = less sensitive
condition_parameters: RPMI 5 mM glucose + 10% FBS; 48 h
Decision: AUC of viability dose-response curve beneath 400 gives 1; AUC of viability dose-response curve meeting or exceeding 400 gives 0.

## Input Please let me know if OC[C@H]1O[C@H](C[C@@H]1O)N2/C=C(C(=O)NC2=O)/C(F)(F)F shows AUC of viability dose-response curve below 400.
## Output 1

## Input AUC of viability dose-response curve strictly < 400 for this molecule? CN(C)c1nc(Cc2ccc(NC(=O)c3ccc(C(F)(F)F)cc3)cc2)nc(N(C)C)c1CC(=O)O
## Output 0

## Input For CCOC(=O)c1c(C)n(C)c2ccc(O)cc12 , is the recorded AUC of viability dose-response curve below the cut-off of 400?
## Output 0

###

System: P12-Ichikawa
assay_remarks: AUC of viability dose-response curve (% viability x log10 dose units); higher = less sensitive
condition_parameters: HPLM + 10% dialyzed FBS; 48 h
Please provide measured AUC of viability dose-response curve for the entries that follow.

1) COc1cc(NCc2ccc3nc(N)nc(N)c3c2C)cc(OC)c1OC; 346
2) CN(CCOc1ccc(CC2SC(=O)NC2=O)cc1)c1ccccn1 (centres undefined); 467
3) Oc1ccc(OCc2ccccc2)cc1; 435
4) NC(=O)c1cccc(-c2cc(Nc3ccc(OC(F)(F)F)cc3)ncn2)c1; 469
5) C[C@]12CC[C@H]3[C@@H](CC(=C)\C4=C\C(=O)\C=C/[C@]34C)[C@@H]1CCC2=O; 466
6) c1cc(-c2cnn3cc(-c4ccc(OCCN5CCCCC5)cc4)cnc23)ccn1; 416

// batch mode: one AUC of viability dose-response curve value per listed entry
1. C[C@@H]1CC[C@@]2(CC[C@]3(C)\C(=C/C[C@@H]4[C@@]5(C)CC[C@H](O)C(C)(C)[C@@H]5CC[C@@]34C)[C@@H]2[C@H]1C)C(O)=O
2. COc1ccc(/C=C\c2cc(OC)c(OC)c(OC)c2)cc1NC(=O)[C@H](N)CO
3. OC1=CC2=C(C(=C1)O)C(=O)\C(=C(/O2)C3=CC(=C(O)C(=C3)O)O)O
4. CC1(C)SCCN([S+](=O)([O-])c2ccc(OCC#CCO)cc2)[C@H]1C(=O)NO
5. CN1C(=O)c2sccc2N(C)c2nc(Nc3ccc([S+](N)(=O)[O-])cc3)ncc21
6. CNc1nc(-c2ccc3c(N)n[nH]c3c2)cc(N2C[C@@H](C(=O)NC3CCCCC3)CC[C@H]2C)n1

## Output
1: 462; 2: 179; 3: 454; 4: 456; 5: 343; 6: 395

Please supply AUC of viability dose-response curve for each of the following items, keeping them in order.
1. C[C@H](NC(=O)Cc1cc(F)cc(F)c1)C(=O)N[C@H](C(=O)OC(C)(C)C)c1ccccc1
2. CO[C@H]1/C=C/O[C@@]2(C)Oc3c(C)c(O)c4c(c3C2=O)C2=NC3(CCN(CC(C)C)CC3)NC2=C(NC(=O)/C(C)=C/C=C/[C@H](C)[C@H](O)[C@@H](C)[C@@H](O)[C@@H](C)[C@H](OC(C)=O)[C@@H]1C)C4=O

## Output
[432, 469]
